# test.protocol: Toxicity in BALBc/AnNHsd mouse assessed as mortality at 34 mg/kg, iv relative to control
# Format: organism-based
# Design: dose 34 mg/kg, route intravenous
# measurement.setup: in vivo
endpoint: mortality

molecule	endpoint	result
Cc1c(C)c2c(c(C)c1O)CCC(C)(COc1ccc(/C=C3\SC(=O)NC3=O)cc1)O2 (stereo unspecified)	mortality	> 50%

----------
# Test system: MDA-MB-231
# test.protocol: Cytotoxicity against human MDA-MB-231 cells assessed as cell viability at 10 uM after 72 hrs by MTS assay in presence of 10% fetal calf serum relative to control
# Assay type: functional
# measurement.setup: MDA-MB-231, 72 h, read-out: Activity
Field 'label' (enum: Criterion met / Criterion not met). Set to Criterion met when viability at 10 µM is strictly under 9%; else Criterion not met.

compound	label.value
Cc1c(C)c2c(c(C)c1CCCCCCNC(=O)OC(C)(C)C)CCC(C)(COc1ccc(/C=C3\SC(=O)NC3=O)cc1)O2 (racemic)	Criterion not met
Cc1c(C)c2c(c(C)c1OC(=O)CCCCCCCN)CCC(C)(COc1ccc(/C=C3\SC(=O)N(C)C3=O)cc1)O2 (racemic)	Criterion met
Cc1c(C)c2c(c(C)c1O)CCC(C)(CN1C(=O)S/C(=C\c3ccc(O)cc3)C1=O)O2 (racemic)	Criterion met
Cc1c(C)c2c(c(C)c1O)CCC(C)(COc1ccc(/C=C3\SC(=O)N(Cc4ccccc4)C3=O)cc1)O2 (racemic)	Criterion not met
O=C1S/C(=C\c2ccc(O)cc2)C(=O)N1C/C=C/c1ccccc1	Criterion met
CCOC(=O)C1(C)CCc2c(C)c(/C=C3\SC(=O)N(Cc4ccccc4)C3=O)c(C)c(C)c2O1 (racemic)	Criterion not met
Cc1c(C)c2c(c(C)c1CCCCCCN)CCC(C)(COc1ccc(/C=C3\SC(=O)NC3=O)cc1)O2.O=C(O)C(F)(F)F (racemic)	Criterion met
O=C1S/C(=C\c2ccc(O)cc2)C(=O)N1Cc1ccccc1	Criterion not met
